system_name: Histone-arginine methyltransferase CARM1 (Homo sapiens)
Sequence (Q86X55 whole entry): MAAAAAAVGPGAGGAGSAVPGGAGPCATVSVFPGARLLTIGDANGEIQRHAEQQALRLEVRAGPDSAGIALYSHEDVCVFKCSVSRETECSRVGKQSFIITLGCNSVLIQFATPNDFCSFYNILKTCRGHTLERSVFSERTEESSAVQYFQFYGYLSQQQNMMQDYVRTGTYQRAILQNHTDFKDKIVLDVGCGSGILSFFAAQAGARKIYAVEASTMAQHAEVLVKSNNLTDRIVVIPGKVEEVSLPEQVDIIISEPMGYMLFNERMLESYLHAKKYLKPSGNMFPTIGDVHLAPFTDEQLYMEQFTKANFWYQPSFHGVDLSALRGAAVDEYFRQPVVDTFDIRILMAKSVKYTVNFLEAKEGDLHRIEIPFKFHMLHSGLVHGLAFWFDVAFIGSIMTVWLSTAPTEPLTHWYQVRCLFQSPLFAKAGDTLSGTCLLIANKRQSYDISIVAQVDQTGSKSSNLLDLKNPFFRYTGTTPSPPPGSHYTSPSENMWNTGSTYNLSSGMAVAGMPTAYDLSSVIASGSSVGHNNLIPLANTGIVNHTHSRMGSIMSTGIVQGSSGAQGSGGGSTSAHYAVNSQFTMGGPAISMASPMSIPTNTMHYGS
procedure_details: Inhibition of human N-terminal FLAG-tagged PRMT4 (2 to end residues) expressed in FreeStyle 293-F cells preincubated for 15 mins followed by substrate addition and measured after 1 hr by Alphalisa assay
endpoint: IC50

The compound listed as "O=C(NC[C@H](O)CN1CCc2ccccc2C1)c1ccc2c(c1)CCN(C(=O)c1ccc(Br)cc1)C2" has a reported IC50 of > 100 µM

----------
Test system: MV4-11
procedure_details: Antiproliferative activity against human MV4-11 cells supplemented with fresh medium containing compound every 4 days measured on day 12 by Celltiter-glo luminescent cell viability assay
Assay type: functional
endpoint: GI50 (nM)
I only need the number, in nM, no unit after it.

Worked cases, GI50 given:
CC(c1ccccc1)N1CCc2sc(C(=O)NCC(O)CN3CCc4ccccc4C3)cc2C1 (centres undefined); 172
O=C(NCC(O)CN1CCc2ccccc2C1)c1cc2c(s1)CCN(C(=O)c1ccccc1F)C2 (centres undefined); 124
O=C(NCC(O)CN1CCc2ccccc2C1)c1cc2c(s1)CCN(C(=O)CCc1ccccc1)C2 (centres undefined); 185

Turning now to a further record.
The molecule listed as CN(C)c1ccc(C(=O)N2CCc3cc(C(=O)NCC(O)CN4CCc5ccccc5C4)ccc3C2)cc1 (centres undefined) has a reported GI50 of 36

----------
system_name: PRMT5/MEP50 complex (Homo sapiens)
procedure_details: Inhibition of recombinant human N-terminal FLAG-tagged PRMT5 (2 to end residues)/human N-terminal His-tagged MEP50 (2 to end residues) expressed in HEK293F cells using H4 peptide as substrate preincubated for 15 mins followed by substrate and [3H]SAM addition and measured after 1 hr by scintillation counting method
endpoint: pIC50
Scale: negative log10 of molar concentration, which is what pIC50 denotes.

O=C(NCC(O)CN1CCc2ccccc2C1)c1cc2c(s1)CCN(S(=O)(=O)c1ccccc1)C2 (stereo unspecified); 7.04
CN1CCc2sc(C(=O)NCC(O)CN3CCc4ccccc4C3)cc2C1 (stereo unspecified); 6.32
CCCN1CCc2sc(C(=O)NCC(O)CN3CCc4ccccc4C3)cc2C1 (stereo unspecified); 5.96
O=C(NCC(O)CN1CCc2ccccc2C1)c1cc2c(s1)CCN(C(=O)c1ccncc1)C2 (stereo unspecified); 7.35
CC(C)(C)c1ccc(C(=O)N2CCc3sc(C(=O)NCC(O)CN4CCc5ccccc5C4)cc3C2)cc1 (stereo unspecified); 7.72

The compound listed as O=C(NCC(O)CN1CCc2ccccc2C1)c1cc2c(s1)CCN(C(=O)c1ccc3ccccc3c1)C2 (stereo unspecified) has a reported pIC50 of 7.66

The compound listed as O=C(NCC(O)CN1CCc2ccccc2C1)c1cc2c(s1)CCN(C(=O)c1ccccc1)C2 (stereo unspecified) has a reported pIC50 of 7.41

----------
Measured log10 IC50 by item
system_name: PRMT5/MEP50 complex (Homo sapiens, UniProt O14744)
Sequence (O14744 whole entry): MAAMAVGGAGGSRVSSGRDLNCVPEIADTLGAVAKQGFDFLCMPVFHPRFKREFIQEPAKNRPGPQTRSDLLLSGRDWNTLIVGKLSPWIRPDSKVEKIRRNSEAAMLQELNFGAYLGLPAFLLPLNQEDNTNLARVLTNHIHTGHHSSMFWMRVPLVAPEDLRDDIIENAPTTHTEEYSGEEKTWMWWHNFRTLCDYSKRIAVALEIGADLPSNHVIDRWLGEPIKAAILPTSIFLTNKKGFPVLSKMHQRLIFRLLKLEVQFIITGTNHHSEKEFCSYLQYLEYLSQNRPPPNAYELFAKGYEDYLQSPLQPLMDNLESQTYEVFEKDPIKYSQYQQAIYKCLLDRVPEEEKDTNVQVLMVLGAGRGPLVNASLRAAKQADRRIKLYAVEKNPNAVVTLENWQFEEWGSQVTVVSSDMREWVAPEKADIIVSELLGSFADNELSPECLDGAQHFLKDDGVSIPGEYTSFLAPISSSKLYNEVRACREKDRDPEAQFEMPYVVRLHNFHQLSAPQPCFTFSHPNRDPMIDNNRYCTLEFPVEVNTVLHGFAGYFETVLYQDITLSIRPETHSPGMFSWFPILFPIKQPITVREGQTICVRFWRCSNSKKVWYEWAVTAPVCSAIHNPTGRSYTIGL
Sequence (Q9BQA1 whole entry, further chain): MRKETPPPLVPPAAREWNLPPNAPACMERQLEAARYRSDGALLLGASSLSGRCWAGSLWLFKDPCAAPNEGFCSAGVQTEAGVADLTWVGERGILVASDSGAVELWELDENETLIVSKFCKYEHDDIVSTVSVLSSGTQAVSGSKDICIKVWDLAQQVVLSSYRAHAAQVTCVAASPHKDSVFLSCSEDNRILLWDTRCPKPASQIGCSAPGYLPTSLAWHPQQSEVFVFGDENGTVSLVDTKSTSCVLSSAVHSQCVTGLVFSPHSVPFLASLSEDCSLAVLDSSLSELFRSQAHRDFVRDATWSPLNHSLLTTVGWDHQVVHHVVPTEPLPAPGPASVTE
procedure_details: Inhibition of recombinant human N-terminal FLAG-tagged PRMT5 (2 to end residues)/human N-terminal His-tagged MEP50 (2 to end residues) expressed in HEK293F cells using H4 peptide as substrate preincubated for 15 mins followed by substrate and [3H]SAM addition and measured after 1 hr by scintillation counting method
The base-10 logarithm of IC50, taken with IC50 in nM, is what appears here.

Worked cases, log10 IC50 given:
CC(=O)c1ccc(C(=O)N2CCc3sc(C(=O)NCC(O)CN4CCc5ccccc5C4)cc3C2)cc1 (centres undefined); 1.28
O=C(NCC(O)CN1CCc2ccccc2C1)c1cc2c(s1)CCN(C(=O)c1ccc(C(F)(F)F)cc1)C2 (centres undefined); 1.69
O=C(NCC(O)CN1CCc2ccccc2C1)c1cc2c(s1)CCN(c1ccccc1)C2 (centres undefined); 2.41

The molecule listed as "O=C(NC[C@H](O)CN1CCc2ccccc2C1)c1ccc2c(c1)CCN(C(=O)c1ccc(Br)cc1)C2" has a reported log10 IC50 of 0.93

The molecule listed as CN(C)c1ccc(C(=O)N2Cc3ccc(C(=O)NCC(O)CN4CCc5ccccc5C4)cc3C2)cc1 (centres undefined) has a reported log10 IC50 of 1.23

The molecule listed as O=C(NCC(O)CN1CCc2ccccc2C1)c1cc2c(s1)CCN(C(=O)c1cccc(F)c1)C2 (centres undefined) has a reported log10 IC50 of 1.50

// provenance: ChEMBL document CHEMBL4411309
